Recorded below: pIC50, system HCoV-229E 3CLpro (Human coronavirus 229E, UniProt P0C6X1).
Lab note — pIC50 values are minus log10 of concentrations in M.

Consider the worked cases shown below.
CC(C)(C)[C@H](NC(=O)C(F)(F)F)C(=O)N1C[C@H]2[C@@H]([C@H]1C(=O)NN(C[C@H]1CCCNC1=O)C(=O)[C@H](F)Cl)C2(C)C (single isomer, unassigned) [Example 163a]    7.28
CC[C@@H](C)[C@H](NC(=O)[C@@H](C)F)C(=O)N1C[C@H]2[C@@H]([C@H]1C(=O)NN(C[C@@H]1CCNC1=O)C(=O)[C@@H](F)Cl)C2(C)C    7.29
CC[C@@H](C)[C@H](NC(=O)C1CC(F)(F)C1)C(=O)N1C[C@@H]2CCC[C@@H]2[C@H]1C(=O)NN(C[C@@H]1CCNC1=O)C(=O)[C@H](F)Cl    7.44
CC(C)(C)[C@H](NC(=O)[C@@H]1CC1(F)F)C(=O)N1C[C@H]2[C@@H]([C@H]1C(=O)NN(C[C@@H]1CCNC1=O)C(=O)[C@@H](F)Cl)C2(C)C    7.55

Query compound follows.
Item `CC[C@H](C)[C@H](NC(=O)C1CC1)C(=O)N1C[C@@H]2CCC[C@@H]2[C@H]1C(=O)NN(C[C@@H]1CCNC1=O)C(=O)[C@H](F)Cl` ; assay system HCoV-229E 3CLpro (Human coronavirus 229E, UniProt P0C6X1); pIC50 reported as 7.54

* * *

- testSystem: UniProt:P0DTD1
- measurementProtocol: biochemical
Recorded IC50 for the following compounds
Just the number in nM, nothing appended.

Consider the worked cases shown below.
CC[C@H](C)[C@H](NC(=O)C(C)C)C(=O)N1C[C@H]2[C@@H]([C@H]1C(=O)NN(C[C@@H]1CCNC1=O)C(=O)[C@@H](F)Cl)C2(C)C    24
CC(C)(C)[C@H](NC(=O)C(F)(F)F)C(=O)N1C[C@H]2[C@@H]([C@H]1C(=O)NN(C[C@@H]1CCNC1=O)C(=O)[C@H](F)Cl)C2(C)C    10
CC(C)(C)[C@H](NC(=O)[C@@H]1CC1(F)F)C(=O)N1C[C@@H]2CCC[C@@H]2[C@H]1C(=O)NN(C[C@@H]1CCNC1=O)C(=O)[C@@H](F)Cl    9
CC[C@H](C)[C@H](NC(=O)C(C)(C)F)C(=O)N1C[C@@H]2CCC[C@@H]2[C@H]1C(=O)NN(C[C@@H]1CCNC1=O)C(=O)[C@H](F)Cl    7
CC[C@H](C)[C@H](NC(=O)C(C)F)C(=O)N1C[C@H]2[C@@H]([C@H]1C(=O)NN(C[C@@H]1CCNC1=O)C(=O)[C@H](F)Cl)C2(C)C (mixture of isomers)    8

IC50 recorded for this compound, `CC[C@H](C)[C@H](NC(=O)C(Cl)Cl)C(=O)N1C[C@H]2[C@@H]([C@H]1C(=O)NN(C[C@@H]1CCNC1=O)C(=O)[C@H](F)Cl)C2(C)C` , is 8

IC50 recorded for this compound, CC[C@H](C)[C@H](NC(=O)C1CC1(F)F)C(=O)N1C[C@@H]2CCC[C@@H]2[C@H]1C(=O)NN(C[C@@H]1CCNC1=O)C(=O)[C@H](F)Cl (mixture of isomers) , is 7

IC50 recorded for this compound, `CC1([C@H](NC(=O)C(F)(F)F)C(=O)N2C[C@H]3[C@@H]([C@H]2C(=O)NN(C[C@@H]2CCNC2=O)C(=O)[C@H](F)Cl)C3(C)C)CC1` , is 18

IC50 recorded for this compound, `O=C1NCC[C@H]1CN(NC(=O)[C@@H]1[C@H]2CCC[C@H]2CN1C(=O)[C@@H](NC(=O)C(F)(F)F)C1CCC1)C(=O)[C@H](F)Cl` , is 7

IC50 recorded for this compound, `CC[C@H](C)[C@H](NC(=O)C1(F)CC1)C(=O)N1C[C@H]2[C@@H]([C@H]1C(=O)NN(C[C@@H]1CCNC1=O)C(=O)[C@@H](F)Cl)C2(C)C` , is 33

* * *

- testSystem: SARS-CoV 3CLpro (Severe acute respiratory syndrome coronavirus, UniProt P0C6X7)
- measurementProtocol: biochemical
Recorded IC50 for the following compounds
Just the number in nM, nothing appended.

CC[C@H](C)[C@H](NC(=O)C1CC1)C(=O)N1C[C@@H]2CCC[C@@H]2[C@H]1C(=O)NN(C[C@@H]1CCNC1=O)C(=O)[C@H](F)Cl    11
CC1(C)[C@@H]2[C@@H](C(=O)NN(C[C@@H]3CCNC3=O)C(=O)[C@H](F)Cl)N(C(=O)Cc3cc(C(F)(F)F)cc(C(F)(F)F)c3)C[C@@H]21    259

Query compound follows.
IC50 recorded for this compound, CC(F)C(=O)N[C@H](C(=O)N1C[C@@H]2CCC[C@@H]2[C@H]1C(=O)NN(C[C@@H]1CCNC1=O)C(=O)[C@H](F)Cl)C(C)(C)C (mixture of isomers) , is 12

* * *

- testSystem: UniProt P0DTD1
- measurementProtocol: biochemical
endpointLabel: pIC50
Lab note — pIC50 values are minus log10 of concentrations in M.

CC[C@H](C)[C@H](NC(=O)C(C)(C)C)C(=O)N1C[C@@H]2CCC[C@@H]2[C@H]1C(=O)NN(C[C@@H]1CCNC1=O)C(=O)[C@H](F)Cl    8.10
CC[C@@H](C)[C@H](NC(=O)C(F)(F)F)C(=O)N1C[C@@H]2CCC[C@@H]2[C@H]1C(=O)NN(C[C@@H]1CCNC1=O)C(=O)[C@H](F)Cl    7.48
CCC(CC)[C@H](NC(=O)C(F)F)C(=O)N1CC(C)(C)C[C@H]1C(=O)NN(C[C@@H]1CCNC1=O)C(=O)[C@H](F)Cl    7.85
CC[C@H](C)[C@H](NC(=O)C1CC1(F)F)C(=O)N1C[C@H]2[C@@H]([C@H]1C(=O)NN(C[C@@H]1CCNC1=O)C(=O)[C@@H](F)Cl)C2(C)C (mixture of isomers)    7.80
CC[C@H](C)[C@H](NC(=O)C1CC(F)(F)C1)C(=O)N1C[C@H]2[C@@H]([C@H]1C(=O)NN(C[C@@H]1CCNC1=O)C(=O)[C@@H](F)Cl)C2(C)C    7.37

pIC50 recorded for this compound, `CC(C)(C)[C@H](NC(=O)C1CC(F)(F)C1)C(=O)N1C[C@@H]2CCC[C@@H]2[C@H]1C(=O)NN(C[C@@H]1CCNC1=O)C(=O)[C@H](F)Cl` , is 8.05

pIC50 recorded for this compound, `CC(C)(C)[C@H](NC(=O)[C@@H]1CC1(F)F)C(=O)N1C[C@H]2[C@@H]([C@H]1C(=O)NN(C[C@@H]1CCNC1=O)C(=O)[C@@H](F)Cl)C2(C)C` , is 8.00

pIC50 recorded for this compound, `CC(C)C(=O)N[C@H](C(=O)N1C[C@@H]2CCC[C@@H]2[C@H]1C(=O)NN(C[C@@H]1CCNC1=O)C(=O)[C@H](F)Cl)C(C)(C)C` , is 8.15

pIC50 recorded for this compound, `CC[C@H](C)[C@H](NC(=O)C(F)(F)F)C(=O)N1C[C@H]2[C@@H]([C@H]1C(=O)NN(C[C@@H]1CCNC1=O)C(=O)[C@H](F)Cl)C2(C)C` , is 8.05

pIC50 recorded for this compound, `CC(C)(C)[C@H](NC(=O)C1(F)CC1)C(=O)N1C[C@@H]2CCC[C@@H]2[C@H]1C(=O)NN(C[C@@H]1CCNC1=O)C(=O)[C@@H](F)Cl` , is 7.89

* * *

Recorded below: pIC50, system UniProtKB P0C6X7.
Lab note — pIC50 values are minus log10 of concentrations in M.

Consider the worked cases shown below.
CC(C)(C)[C@H](NC(=O)[C@@H]1CC1(F)F)C(=O)N1C[C@H]2[C@@H]([C@H]1C(=O)NN(C[C@@H]1CCNC1=O)C(=O)[C@H](F)Cl)C2(C)C    7.74
CC[C@H](C)[C@H](NC(=O)C(F)(F)F)C(=O)N1C[C@H]2[C@@H]([C@H]1C(=O)NN(C[C@@H]1CCCNC1=O)C(=O)[C@H](F)Cl)C2(C)C (single isomer, unassigned) [Example 165a]    7.92
CCC(=O)N[C@H](C(=O)N1C[C@@H]2CCC[C@@H]2[C@H]1C(=O)NN(C[C@@H]1CCNC1=O)C(=O)[C@H](F)Cl)[C@@H](C)CC    8.00
CC(C)(C)C(=O)N[C@H](C(=O)N1C[C@H]2[C@@H]([C@H]1C(=O)NN(C[C@@H]1CCNC1=O)C(=O)[C@H](F)Cl)C2(C)C)C(C)(C)C    7.47
CC(C)(C)[C@H](NC(=O)C(F)(F)F)C(=O)N1C[C@H]2[C@@H]([C@H]1C(=O)NN(C[C@@H]1CCNC1=O)C(=O)[C@H](F)Cl)C2(C)C    7.82
CC[C@H](C)[C@H](NC(C)=O)C(=O)N1C[C@@H]2CCC[C@@H]2[C@H]1C(=O)NN(C[C@@H]1CCNC1=O)C(=O)[C@H](F)Cl    7.82
CC1(C)[C@@H]2[C@@H](C(=O)NN(C[C@@H]3CCNC3=O)C(=O)[C@H](F)Cl)N(C(=O)/C=C/c3cc(F)cc(F)c3)C[C@@H]21    6.60
CC[C@H](C)[C@H](NC(=O)C1CC1)C(=O)N1C[C@H]2[C@@H]([C@H]1C(=O)NN(C[C@@H]1CCNC1=O)C(=O)[C@H](F)Cl)C2(C)C    7.89

pIC50 recorded for this compound, `CC(C)(C)[C@H](NC(=O)C(F)(F)F)C(=O)N1C[C@@H]2C[C@@H]2[C@H]1C(=O)NN(C[C@@H]1CCNC1=O)C(=O)[C@H](F)Cl` , is 7.42

pIC50 recorded for this compound, `CCC(C)(C)[C@H](NC(=O)[C@H](C)F)C(=O)N1C[C@H]2[C@@H]([C@H]1C(=O)NN(C[C@@H]1CCNC1=O)C(=O)[C@H](F)Cl)C2(C)C` , is 7.60

Just for reference, patent US20250059171A1 is where these values come from.
